- TARGET OF ASSAY: T1, human IL-1β (human, UniProt P01584 117-269)
- T1 construct: it has 153 residues and begins APVRS; also called hIL-1β; recombinant purified human IL-1β
- ASSAY PROCEDURE: SPR (Biacore 3000), antibody captured, human IL-1β as analyte, 25 C
PARAMETER: Kd (nM)
Give your result in nM as a bare value.

1. humanized anti-human IL-1β antibody 1B12.7 (antibody, V domains shown, Cloned into IgG expression vectors and made as full-length humanized antibody; also called h1B12VH.2a/h1B12VL.2a; combination 7) VH: EVQLVESGGGLVQPGGSLRLSCAVSGFTLSDYGVSWIRQAPGKGLEWLGLIWGGGDTYYNSPLKSRLTISKDNSKSTVYLQMNSLRAEDTAVYYCAKQRTLWGYDLYGMDYWGQGTLVTVSS VL: DTVVTQSPAFLSVTPGEKVTITCITSTDIDVDMNWYQQKPDQPPKLLISQGNTLRPGVPSRFSSSGSGTDFTFTISSLEAEDAATYYCLQSDNLPLTFGQGTKLEIK | 0.284
2. humanized anti-human IL-1β antibody 1B12.4 (antibody, V domains shown, Cloned into IgG expression vectors and made as full-length humanized antibody; also called h1B12VH.1a/h1B12VL.2b; combination 4) VH: EVQLQESGPGLVKPSETLSLTCTVSGFSLSDYGVSWIRQPPGKGLEWLGLIWGGGDTYYNSPLKSRLTISKDNSKSQVSLKLSSVTAADTAVYYCAKQRTLWGYDLYGMDYWGQGTLVTVSS VL: ETTVTQSPAFLSVTPGEKVTITCITSTDIDVDMNWYQQKPDQPPKLLISQGNTLRPGVPSRFSSSGSGTDFTFTISSLEAEDAATYYCLQSDNLPLTFGQGTKLEIK | 0.161
3. humanized anti-human IL-1β antibody 1B12.8 (antibody, V domains shown, Cloned into IgG expression vectors and made as full-length humanized antibody; also called h1B12VH.2a/h1B12VL.2b; combination 8) VH: EVQLVESGGGLVQPGGSLRLSCAVSGFTLSDYGVSWIRQAPGKGLEWLGLIWGGGDTYYNSPLKSRLTISKDNSKSTVYLQMNSLRAEDTAVYYCAKQRTLWGYDLYGMDYWGQGTLVTVSS VL: ETTVTQSPAFLSVTPGEKVTITCITSTDIDVDMNWYQQKPDQPPKLLISQGNTLRPGVPSRFSSSGSGTDFTFTISSLEAEDAATYYCLQSDNLPLTFGQGTKLEIK | 0.23

I have this binder here, humanized anti-human IL-1β antibody 1B12.2 (antibody, V domains shown, Cloned into IgG expression vectors and made as full-length humanized antibody; also called h1B12VH.1a/h1B12VL.1b; combination 2) VH: EVQLQESGPGLVKPSETLSLTCTVSGFSLSDYGVSWIRQPPGKGLEWLGLIWGGGDTYYNSPLKSRLTISKDNSKSQVSLKLSSVTAADTAVYYCAKQRTLWGYDLYGMDYWGQGTLVTVSS VL: ETTVTQSPSSLSASVGDRVTITCITSTDIDVDMNWYQQKPGKPPKLLISQGNTLRPGVPSRFSSSGSGTDFTFTISSLQPEDFATYYCLQSDNLPLTFGQGTKLEIK , and I need its recorded Kd.
0.147

Then what about the binder humanized anti-human IL-1β antibody 1B12.5 (antibody, V domains shown, Cloned into IgG expression vectors and made as full-length humanized antibody; also called h1B12VH.2a/h1B12VL.1a; combination 5) VH: EVQLVESGGGLVQPGGSLRLSCAVSGFTLSDYGVSWIRQAPGKGLEWLGLIWGGGDTYYNSPLKSRLTISKDNSKSTVYLQMNSLRAEDTAVYYCAKQRTLWGYDLYGMDYWGQGTLVTVSS VL: DTQVTQSPSSLSASVGDRVTITCITSTDIDVDMNWYQQKPGKPPKLLISQGNTLRPGVPSRFSSSGSGTDFTFTISSLQPEDFATYYCLQSDNLPLTFGQGTKLEIK ?
0.231

The reported measurements were obtained from patent US20110142761A1.
